Origin of the recorded values: patent US20240425575A1

Target: T1, recombinant human ANG2 protein corresponding to Lys275-Phe496 of human ANG2 (human, UniProt O15123 275-496)
T1 construct: also called hANG2
T1 sequence: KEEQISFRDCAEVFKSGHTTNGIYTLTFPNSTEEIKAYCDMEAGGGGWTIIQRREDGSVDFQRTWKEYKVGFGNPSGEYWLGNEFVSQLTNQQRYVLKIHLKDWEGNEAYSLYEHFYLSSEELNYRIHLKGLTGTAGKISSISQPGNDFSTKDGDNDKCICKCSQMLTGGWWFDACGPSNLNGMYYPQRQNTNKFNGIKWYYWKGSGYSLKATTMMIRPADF
Test: ELISA, hANG2 coated, E. coli supernatant, anti-VHH-HRP

{"columns": ["Binder", "OD Value Obtained after Binding to hANG2 [OD 450 nm]"],
 "data": [
  ["B2-E2 (VHH, Tested as E. coli TG1 culture supernatant (phagemid pComb3XSS); also called anti-ANG2 heavy-chain single-domain antibody B2-E2) VHH: EVQLVESGGGLVQPGESLRLSCVASGFPSGFTFSDYQMYWYRQAPGKERELVAIISNDGLRKTYADSVKGRFTISRDNAKNTMFLQMNSLKPEDTAVYVCNVRRANRDDWGQGTQVTVSS", 1.96],
  ["B3-H7 (VHH, Tested as E. coli TG1 culture supernatant (phagemid pComb3XSS); also called anti-ANG2 heavy-chain single-domain antibody B3-H7) VHH: EVQVVESGGGLVQAGGSLRLSCAASGSTAINSVAGWYRQAPGKQRELVAGISNIGDTRYADSVKGRFTISRDNAKKTVYLQMNSLKSEDTAVYYCYAKYWARDYWGQGTQVTVSS", 1.82],
  ["B1-H9 (VHH, Tested as E. coli TG1 culture supernatant (phagemid pComb3XSS); also called anti-ANG2 heavy-chain single-domain antibody B1-H9) VHH: EVQLVESGGDLVQAGGSLRLSCAASGSTFSSTIAGWYRQAPGKQRELVAGISNIGDTRYADSVKGRFTISRDNAKKTVYLQMNSLKPEDTAVYYCYAKYWARDYWGQGTQVTVSS", 1.5],
  ["B4-D3 (VHH, Tested as E. coli TG1 culture supernatant; also called anti-ANG2 heavy-chain single-domain antibody B4-D3) VHH: QLQLVESGGGLVQPGGSLRLSCVASGASGISFSNRGMAWYRQAPGKQRELVAAIDSAGSPAYAGSVKGRFTISRDNAKNTVFLQMNSLKPEDTAVYYCNQPRFNLWGLGTQVTVSS", 1.68]
]}
